# credit: patent US20130172311A1

Method: Pharmacokinetic parameters after intravenous administration in rats
Assay type: in vivo
Experimental parameters: rat, plasma, i.v., comparison compound, read-out: CLplasma (plasma clearance) (converted)
Method: The substance to be examined was administered to animals (for example mice or rats) intravenously as a solution (for example in corresponding plasma with a small addition of DMSO or in a PEG/ethanol/water mixture), and peroral administration was effected as a solution (for example in Solutol/ethanol/water or PEG/ethanol/water mixtures) or as a suspension (e.g. in tylose), in each case via a gavage. […] The substance was quantified analytically in the plasma via LC-MS/MS. […]
Quantity measured: clearance (mL/min/kg)

>>> result_number("Cc1ccc(Cn2nc(-c3nc(-c4ccc(OC(F)(F)F)cc4)no3)cc2C)cc1 [Example 1 in WO 2008/141731-A2, reference compound]")
6.67

---

Test system: luciferase reporter under the control of an HIF-responsive sequence in HCT 116 cells
Method: HIF luciferase assay
Type: cell-based
Experimental parameters: Homo sapiens; HCT 116 reporter cells, hypoxia chamber (1% O2), 24 h; comparison compound
pIC50: −log10 of the molar value.
Quantity measured: pIC50

>>> result_number("Cc1ccc(Cn2nc(-c3nc(-c4ccc(OC(F)(F)F)cc4)no3)cc2C)cc1 [Example 1 in WO 2008/141731-A2, reference compound]")
7.52

---

Method: Pharmacokinetic parameters after peroral administration in rats
Assay type: in vivo
Experimental parameters: rat, plasma, po, 1-3 mg/kg, solution in Solutol/ethanol/water, read-out: F (bioavailability)
Protocol: The substance to be examined was administered to animals (for example mice or rats) intravenously as a solution (for example in corresponding plasma with a small addition of DMSO or in a PEG/ethanol/water mixture), and peroral administration was effected as a solution (for example in Solutol/ethanol/water or PEG/ethanol/water mixtures) or as a suspension (e.g. in tylose), in each case via a gavage. […] The substance was quantified analytically in the plasma via LC-MS/MS. […]
The following compounds are shown together with reported bioavailability values.
Quantity measured: bioavailability (%)

>>> result_number("Cc1cc(-c2nc(-c3ccc(OC(F)(F)F)cc3)no2)nn1Cc1cccc(N2CC(O)C2)c1")
68
>>> result_number("Cc1ccc(Cn2nc(-c3nc(-c4ccc(OC(F)(F)F)cc4)no3)cc2C)cc1 [Example 1 in WO 2008/141731-A2, reference compound]")
74
